Origin of measurements: patent US11458083B2

Kindly supply the reported Absorption maximum λmax values for the records listed here.
PROCEDURE SUMMARY: UV shielding properties: UV spectra in ethanol
Assay type: physicochemical
Set-up: unit not given here
REPORTED CONDITIONS: UV spectrum in ethanol
Source text: The UV shielding properties of the merocyanine derivatives are investigated by measuring their UV spectra in ethanol. In the following table the investigated absorption maxima (Amax) together with the corresponding A^1%1cm values are listed.
Numbers only.

Here's what some known entries look like.
1) N#C/C(=C\C=C\N1CCCCC1)C(=O)NCCO [Compound 6] | 380
2) CCCCC(CC)CNC1=C/C(=C(/C#N)C(=O)NCCO)CCC1 (stereo not shown) [Compound 16] | 386
3) CCOCCOC(=O)/C(C#N)=C/C=C/N1CCCCC1 [Compound 4] | 381
4) N#C/C(=C\C=C\N1CCCCC1)C(=O)OCC(O)CO (stereo not shown) [Compound 7] | 381
5) CCOCCOC(=O)/C(C#N)=C/C=C/N(CCOC)CCOC [Compound 3] | 380
6) CCCCCCCCOC(=O)/C(C#N)=C/C=C/N(CC)CCO [Compound 18] | 385

For every record below, what is its Absorption maximum λmax?
1. CCOCCOC(=O)/C(C#N)=C1\C=C(NCCCOC)CCC1 [Compound 25]
2. N#C/C(=C\C=C\N1CCOCC1)C(=O)OCC(O)CO (stereo not shown) [Compound 9]
3. CCCCOC(=O)/C(C#N)=C/C=C/N(CCO)CCCC [Compound 12]
4. CCCN(/C=C/C=C(\C#N)C(=O)OCC(O)CO)CCC (stereo not shown) [Compound 23]

Output line:
1. 385
2. 380
3. 381
4. 381
